Cited source for all entries: patent US6359009B1

tested on: Diabrotica undecimrunctata howardi, 3rd instar southern corn rootworm; assay: Evaluation against 3rd instar southern corn rootworm, treated talc/soil jar test, mortality after 5 days; type: in vivo, Diabrotica undecimpunctata howardi; details: 10 ppm; mortality rating 0-9 after 5 days in soil
Reported values of Southern Corn Rootworm (10 ppm) rating for individual entries
Observation type: Southern Corn Rootworm (10 ppm) rating

* CC(C)C(=O)C(C)(C)C(=O)N(C)c1ccc(Cl)cc1 [Compound 2] | 0.0
* CC(C)C(=O)C(C)(C)C(=O)N(C(=O)c1c(F)cccc1F)c1ccc(C(F)(F)F)cc1 [Compound 8] | 0.0
* CC(C)C(=O)C(C)(C)C(=O)N(C(=O)c1ccc(C(F)(F)F)cc1)c1ccc(C(F)(F)F)cc1 [Compound 6] | 9.0
* CC(C)SC(C)(C)C(=O)Nc1ccc(C(F)(F)F)cc1 [Compound 5] | 0.0

====

test system: Diabrotica virgifera virgifera Leconte, 3rd instar western corn rootworm; experiment: Evaluation against 3rd instar western corn rootworm, treated talc/soil jar test, mortality after 5 days; assay type: in vivo; settings: 50 ppm; mortality rating 0-9 after 5 days in soil
Listed compounds paired with reported Western Corn Rootworm (50 ppm) rating
Observation type: Western Corn Rootworm (50 ppm) rating

* C#CCOC(C(C)C)C(C)(C)C(=O)Nc1ccc(C(F)(F)F)cc1 (stereo not shown) | 9.0
* CC(C)C(=O)C(C)C(=O)Nc1ccc(C(F)(F)F)cc1 (stereo not shown) | 8.5
* CC(C)OC(C(C)C)C(C)(C)C(=O)Nc1ccc(C(F)(F)F)cc1 (stereo not shown) | 9.0
* CCOC(C)(C)C(=O)Nc1ccc(C(F)(F)F)cc1 | 9.0
* CCOC(C(C)C)C(C)(C)C(=O)Nc1ccc(C(F)(F)F)cc1 (stereo not shown) | 9.0
* CC(C)CC(C)C(=O)Nc1ccc(C(F)(F)F)c(OC(F)F)c1 (stereo not shown) | 4.0
* CC(C)C(=O)C(C)(C)C(=O)N(C)c1ccc(C(F)(F)F)cc1 | 9.0
* CC(C)C(OC(=O)CCl)C(C)(C)C(=O)Nc1ccc(C(F)(F)F)cc1 (stereo not shown) | 9.0
* CC(C)C(OS(C)(=O)=O)C(C)(C)C(=O)Nc1ccc(C(F)(F)F)cc1 (stereo not shown) | 9.0
* CC(C)OC(C)(C)C(=O)Nc1ccc(C(F)(F)F)cc1 | 9.0
* CCOCOC(C(C)C)C(C)(C)C(=O)Nc1ccc(C(F)(F)F)cc1 (stereo not shown) | 9.0
* CC(C)C(=O)C1(C(=O)Nc2ccc(C(F)(F)F)cc2)CC1 | 7.0
* CCOCN(C(=O)C(C)(C)C(=O)C(C)C)c1ccc(C(F)(F)F)cc1 | 9.0
* C=CCOC(C(C)C)C(C)(C)C(=O)Nc1ccc(C(F)(F)F)cc1 (stereo not shown) | 9.0
* COC(C(C)C)C(C)(C)C(=O)Nc1ccc(Cl)cc1 (stereo not shown) | 9.0
* CC(C)(C)OC(C)(C)C(=O)Nc1ccc(C(F)(F)F)cc1 | 9.0
* CC(C)(C)C(=O)C(C)(C)C(=O)Nc1ccc(C(F)(F)F)cc1 | 9.0
* CC(C)C(OC1CCCC1)C(C)(C)C(=O)Nc1ccc(C(F)(F)F)cc1 (stereo not shown) | 8.0
* CC(C)[S+]([O-])C(C)(C)C(=O)Nc1ccc(C(F)(F)F)cc1 (stereo not shown) | 9.0

====

system: Diabrotica undecimrunctata howardi, 3rd instar southern corn rootworm; experiment: Evaluation against 3rd instar southern corn rootworm, treated talc/soil jar test, mortality after 5 days; format: in vivo, Diabrotica undecimpunctata howardi; conditions: 50 ppm; mortality rating 0-9 after 5 days in soil
Observation type: Southern Corn Rootworm (50 ppm) rating

- CC(C)S(=O)(=O)C(C)(C)C(=O)Nc1ccc(C(F)(F)F)cc1: 9.0
- CC(C)C(O)C(C)(C)C(=O)Nc1ccc(Cl)cc1 (stereo not drawn): 8.0
- CC(=O)OC(C(C)C)C(C)(C)C(=O)Nc1ccc(Cl)cc1 (stereo not drawn): 9.0
- CC(C)C(=O)C(C)(C)C(=O)N(C(=O)c1ccc(Cl)cc1)c1ccc(C(F)(F)F)cc1: 9.0
- CC(C)(C(=O)Nc1ccc(C(F)(F)F)cc1)C(=O)C(C)(C)c1ccccc1: 6.0
- CC(C)C(=O)C(C)(C)C(=O)N(C(=O)c1ccc(C(F)(F)F)cc1)c1ccc(C(F)(F)F)cc1: 9.0
- CC(C)C(=O)C(C)(C)C(=O)N(C(=O)c1c(F)cccc1F)c1ccc(C(F)(F)F)cc1: 4.0
- CC(C)C(O)C(C)(C)C(=O)Nc1ccc(C(F)(F)F)cc1 (stereo not drawn): 9.0
- CC(C)C(=O)C(C)(C)C(=O)Nc1ccc(Cl)cc1: 9.0
